# ASSAY SUMMARY: Therapeutic index, ratio of CC50 for human CEM-SS cells to EC50 for HIV-1 3B infected in human CEM-SS cells
# Format: cell-based
# CONDITION: CEM-SS cells (uninfected, and infected with HIV-1 3B)
Here the recorded selectivity ratio is given for each entry.

Below: 2 compounds and their reported selectivity ratio.
ENTRY SMILES: CCc1c(C(=O)c2ccccc2)n(COCc2ccccc2)c(=O)n(O)c1=O
selectivity ratio: > 71
//
ENTRY SMILES: CCc1c(C(=O)c2ccccc2)n(COCc2ccc(F)cc2)c(=O)n(O)c1=O
selectivity ratio: > 50

For the next question, use this compound.
Query :: Output measured selectivity ratio for this item: `CCc1c(C(=O)c2ccccc2)n(COCCc2ccc(F)cc2)c(=O)n(O)c1=O`
Result :: > 290
